TARGET_SYSTEM: UniProt:Q8WWR8
Criterion: IC50 strictly less than 400 µM. Met: true. Not met: false.

Is IC50 strictly under 400 µM for the entry CC(=O)N[C@@H]1[C@@H](N=[N+]=[N-])C=C(C(=O)O)O[C@H]1CNNc1ccccc1 ?
false

Is IC50 strictly under 400 µM for the entry CC(=O)N[C@@H]1[C@@H](N=[N+]=[N-])C=C(C(=O)O)O[C@H]1CNc1ccccc1 ?
true

Is IC50 strictly under 400 µM for the entry CC(=O)N[C@H]1[C@H](CNNCc2ccc(-c3ccccc3)cc2)OC(C(=O)O)=C[C@@H]1O ?
true

Is IC50 strictly under 400 µM for the entry CC(=O)N[C@H]1[C@H](CNc2ccccc2)OC(C(=O)O)=C[C@@H]1O ?
false

Is IC50 strictly under 400 µM for the entry CC(=O)N[C@H]1[C@H]([C@H](O)[C@H](O)CO)OC(C(=O)O)=C[C@@H]1N=[N+]=[N-] ?
false

Is IC50 strictly under 400 µM for the entry CC(=O)N[C@@H]1[C@@H](N=[N+]=[N-])C=C(C(=O)O)O[C@H]1CN(Cc1ccccc1)OCc1ccccc1 ?
true

====

Quick record of pKi values for Sialidase-3 (Homo sapiens, UniProt Q9UQ49).
Numbers only, as −log10 of the molar value.

Example entries begin here.
CC(=O)N[C@@H]1[C@@H](N=[N+]=[N-])C=C(C(=O)O)O[C@H]1CNOCc1ccccc1 :: 5.10
CC(=O)N[C@H]1[C@H]([C@H](O)[C@H](O)CO)OC(C(=O)O)=C[C@@H]1O :: 5.66

Identify the reported pKi for the following entry. CC(=O)N[C@@H]1[C@@H](N=[N+]=[N-])C=C(C(=O)O)O[C@H]1CNNc1ccccc1
4.96

====

TARGET_SYSTEM: Sialidase-3 (Homo sapiens, UniProt Q9UQ49)
Sequence (Q9UQ49 whole entry): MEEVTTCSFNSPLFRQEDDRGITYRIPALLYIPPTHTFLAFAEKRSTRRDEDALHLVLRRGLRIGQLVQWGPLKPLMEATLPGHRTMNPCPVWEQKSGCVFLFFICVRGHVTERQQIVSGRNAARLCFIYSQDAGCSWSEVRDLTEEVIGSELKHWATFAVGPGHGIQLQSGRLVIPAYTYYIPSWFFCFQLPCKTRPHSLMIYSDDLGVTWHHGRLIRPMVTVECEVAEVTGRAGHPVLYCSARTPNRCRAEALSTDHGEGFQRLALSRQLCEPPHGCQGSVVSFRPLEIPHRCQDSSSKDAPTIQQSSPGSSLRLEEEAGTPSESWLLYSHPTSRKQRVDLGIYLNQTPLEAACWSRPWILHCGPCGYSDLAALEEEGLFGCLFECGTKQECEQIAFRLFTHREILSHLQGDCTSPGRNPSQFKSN
QUANTITY_MEASURED: pIC50
Give bare numbers, as −log10 of the molar value.

For each listed entry, give its pIC50.
1. CC(=O)N[C@H]1[C@H](CNc2ccccc2)OC(C(=O)O)=C[C@@H]1N
2. CC(=O)N[C@H]1[C@H]([C@H](O)[C@H](O)CO)OC(C(=O)O)=C[C@@H]1N=[N+]=[N-]
3. CC(=O)N[C@@H]1[C@@H](N=[N+]=[N-])C=C(C(=O)O)O[C@H]1CNc1ccc(-c2ccccc2)cc1
4. CC(=O)N[C@H]1[C@H](CNc2ccccc2)OC(C(=O)O)=C[C@@H]1O

3.27
4.27
4.30
3.43

====

Quick record of pIC50 values for Sialidase-1 (Homo sapiens, UniProt Q99519).
pIC50: −log10 of the molar value.

For each listed entry, give its pIC50.
1. CC(=O)N[C@H]1[C@H](CNc2ccccc2)OC(C(=O)O)=C[C@@H]1O
2. CC(=O)N[C@H]1[C@H](CNNCc2ccc(-c3ccccc3)cc2)OC(C(=O)O)=C[C@@H]1O
3. CC(=O)N[C@@H]1[C@@H](N=[N+]=[N-])C=C(C(=O)O)O[C@H]1CNNc1ccccc1
4. CC(=O)N[C@H]1[C@H](CNc2ccccc2)OC(C(=O)O)=C[C@@H]1N
5. CC(=O)N[C@H]1[C@H](CNCc2ccccc2)OC(C(=O)O)=C[C@@H]1O
6. CC(=O)N[C@@H]1[C@@H](N=[N+]=[N-])C=C(C(=O)O)O[C@H]1CNc1ccccc1

< 3.00
< 3.00
< 3.00
< 3.00
< 3.00
< 3.00

Identify the reported pIC50 for the following entry. CC(=O)N[C@H]1[C@H]([C@H](O)[C@H](O)CO)OC(C(=O)O)=C[C@@H]1N
< 3.00

====

TARGET_SYSTEM: Sialidase-1 (Homo sapiens)
pIC50: −log10 of the molar value.
QUANTITY_MEASURED: pIC50

Example entries begin here.
CC(=O)N[C@@H]1[C@@H](N=[N+]=[N-])C=C(C(=O)O)O[C@H]1CN(Cc1ccccc1)OCc1ccccc1 :: < 3.00
CC(=O)N[C@@H]1[C@@H](N=[N+]=[N-])C=C(C(=O)O)O[C@H]1CNOCc1ccccc1 :: < 3.00
CC(=O)N[C@@H]1[C@@H](N=[N+]=[N-])C=C(C(=O)O)O[C@H]1CNc1ccc(-c2ccccc2)cc1 :: < 3.00

Then this molecule:
Identify the reported pIC50 for the following entry. CC(=O)N[C@H]1[C@H]([C@H](O)[C@H](O)CO)OC(C(=O)O)=C[C@@H]1N=[N+]=[N-]
3.44

====

Provide the reported pIC50 of each item.
TARGET_SYSTEM: Neuraminidase (Vibrio cholerae, UniProt Q5IB64)
Give bare numbers, as −log10 of the molar value.

Example entries begin here.
CC(=O)N[C@@H]1[C@@H](N=[N+]=[N-])C=C(C(=O)O)O[C@H]1CNOCc1ccccc1 :: 3.26
CC(=O)N[C@H]1[C@H]([C@H](O)[C@H](O)CO)OC(C(=O)O)=C[C@@H]1N=[N+]=[N-] :: 3.27

Identify the reported pIC50 for the following entry. CC(=O)N[C@H]1[C@H]([C@H](O)[C@H](O)CO)OC(C(=O)O)=C[C@@H]1O
3.77

====

Provide the reported IC50 of each item.
Target protein (sequence): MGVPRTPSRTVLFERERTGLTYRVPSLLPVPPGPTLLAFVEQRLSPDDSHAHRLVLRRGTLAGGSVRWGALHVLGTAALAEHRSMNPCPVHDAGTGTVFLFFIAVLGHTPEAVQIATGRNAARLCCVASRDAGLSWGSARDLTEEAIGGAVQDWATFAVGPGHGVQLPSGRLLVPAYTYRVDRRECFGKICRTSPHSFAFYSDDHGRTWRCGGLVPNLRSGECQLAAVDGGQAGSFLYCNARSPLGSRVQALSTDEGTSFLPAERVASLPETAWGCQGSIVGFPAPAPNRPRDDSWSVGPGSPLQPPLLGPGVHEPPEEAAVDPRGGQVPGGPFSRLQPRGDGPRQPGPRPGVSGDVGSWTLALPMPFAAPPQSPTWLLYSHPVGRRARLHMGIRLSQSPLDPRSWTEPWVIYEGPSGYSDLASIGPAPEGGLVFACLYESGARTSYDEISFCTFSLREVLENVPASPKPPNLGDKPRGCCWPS
Give bare numbers, in µM.

CC(=O)N[C@@H]1[C@@H](N=[N+]=[N-])C=C(C(=O)O)O[C@H]1CNc1ccc(-c2ccccc2)cc1 :: 210

Identify the reported IC50 for the following entry. CC(=O)N[C@H]1[C@H]([C@H](O)[C@H](O)CO)OC(C(=O)O)=C[C@@H]1N
720

====

TARGET_SYSTEM: Neuraminidase (Vibrio cholerae)
pIC50: −log10 of the molar value.
QUANTITY_MEASURED: pIC50

Example entries begin here.
CC(=O)N[C@H]1[C@H](CNc2ccccc2)OC(C(=O)O)=C[C@@H]1O :: < 3.00
CC(=O)N[C@@H]1[C@@H](N=[N+]=[N-])C=C(C(=O)O)O[C@H]1CNc1ccc(-c2ccccc2)cc1 :: < 3.00

Then this compound:
Identify the reported pIC50 for the following entry. CC(=O)N[C@H]1[C@H](CNc2ccccc2)OC(C(=O)O)=C[C@@H]1N
< 3.00

====

Quick record of IC50 values for Sialidase-4 (Homo sapiens, UniProt Q8WWR8).

Example entries begin here.
CC(=O)N[C@H]1[C@H](CNCc2ccccc2)OC(C(=O)O)=C[C@@H]1O :: > 1000 µM
CC(=O)N[C@@H]1[C@@H](N=[N+]=[N-])C=C(C(=O)O)O[C@H]1CNOCc1ccccc1 :: > 1000 µM

Then this compound:
Identify the reported IC50 for the following entry. CC(=O)N[C@H]1[C@H](CNc2ccccc2)OC(C(=O)O)=C[C@@H]1N
> 1000 µM
